Measured LD50 of individual entries
Test: Toxicity in iv dosed mouse
Assay type: organism-based
Conditions: in vivo

### Prompt Look up LD50 for this compound: `CCCC(=O)Nc1ncnc2c1nc(O)n2[C@@H]1O[C@@H]2COP(=O)([O-])O[C@H]2[C@H]1OC(=O)CCC.[Na+]`
### Response > 200 mg/kg

### Prompt Look up LD50 for this compound: `CCCC(=O)Nc1ncnc2c1nc(SC)n2[C@@H]1O[C@@H]2COP(=O)([O-])O[C@H]2[C@H]1OC(=O)CCC.[Na+]`
### Response > 200 mg/kg

### Prompt Look up LD50 for this compound: `CCCC(=O)O[C@@H]1[C@@H]2OP(=O)([O-])OC[C@H]2O[C@H]1n1c(S)nc2c(N)ncnc21.[Na+]`
### Response > 200 mg/kg

* * *

Assay: Toxicity in iv dosed mouse
Format: organism-based
Conditions: in vivo
Recorded metric: LD50

Example cases with answers are listed next.
[
  {
    "Chemical string": "CCCC(=O)Nc1ncnc2c1nc(N)n2[C@@H]1O[C@@H]2COP(=O)([O-])O[C@H]2[C@H]1OC(=O)CCC.[Na+]",
    "Recorded metric": "LD50",
    "Reading": "> 200 mg/kg"
  },
  {
    "Chemical string": "CCCC(=O)Nc1ncnc2c1ncn2[C@@H]1O[C@@H]2COP(=O)([O-])O[C@H]2[C@H]1OC(=O)CCC.[Na+]",
    "Recorded metric": "LD50",
    "Reading": "> 200 mg/kg"
  },
  {
    "Chemical string": "CCCC(=O)Nc1ncnc2c1nc(S)n2[C@@H]1O[C@@H]2COP(=O)([O-])O[C@H]2[C@H]1O.[Na+]",
    "Recorded metric": "LD50",
    "Reading": "> 200 mg/kg"
  }
]

### Prompt Look up LD50 for this compound: `CCCC(=O)Nc1ncnc2c1nc(SCc1ccccc1)n2[C@@H]1O[C@@H]2COP(=O)([O-])O[C@H]2[C@H]1O.[Na+]`
### Response > 200 mg/kg

### Prompt Look up LD50 for this compound: `CCCC(=O)O[C@@H]1[C@@H]2OP(=O)([O-])OC[C@H]2O[C@H]1n1c(SC)nc2c(N)ncnc21.[Na+]`
### Response > 200 mg/kg

### Prompt Look up LD50 for this compound: `CCCC(=O)Nc1ncnc2c1nc(S)n2[C@@H]1O[C@@H]2COP(=O)([O-])O[C@H]2[C@H]1OC(=O)CCC.[Na+]`
### Response > 200 mg/kg

### Prompt Look up LD50 for this compound: `CCCC(=O)Nc1ncnc2c1nc(SC)n2[C@@H]1O[C@@H]2COP(=O)([O-])O[C@H]2[C@H]1O.[Na+]`
### Response > 200 mg/kg
